# test-method-notes: Antagonist activity at P2Y12 receptor in rat platelet-rich plasma assessed as inhibition of ADP-induced platelet aggregation incubated for 5 mins prior to ADP-challenge by light transmission-based assay
reported-endpoint: pIC50
API: returns pIC50 as number; meaning -log10 of concentration in mol/L.

Look up pIC50 for this compound: "CCCSc1nc(N[C@@H]2C[C@H]2c2scnc2C)c2nnn([C@@H]3C[C@H](OCCO)[C@@H](O)[C@H]3O)c2n1"
5.74

Look up pIC50 for this compound: "CCCSc1nc(N[C@@H]2C[C@H]2c2ccc(F)c(F)c2)c2nnn([C@H]3[C@H](O)[C@H](O)[C@@H](OCCO)[C@@H]3O)c2n1"
5.86

Look up pIC50 for this compound: CCCSc1nc(N[C@@H]2C[C@H]2c2ccc(F)c(F)c2)c2nnn(C3[C@H](O)[C@H](O)[C@@H](O)[C@H]3O)c2n1 (stereo partly specified)
5.90

Look up pIC50 for this compound: "CCCSc1nc(N[C@@H]2C[C@H]2c2ccc(F)c(F)c2)c2nnn([C@H]3[C@H](O)[C@H](O)[C@@H](OCCO)[C@H]3F)c2n1"
6.32

Look up pIC50 for this compound: CCCSc1nc(N[C@@H]2C[C@H]2c2ccc(F)c(F)c2)c2nnn([C@@H]3C[C@H](OCC(O)CO)[C@@H](O)[C@H]3O)c2n1 (stereo partly specified)
6.83

Look up pIC50 for this compound: "CCCSc1nc(N[C@@H]2C[C@H]2c2ccc(F)c(F)c2)c2nnn([C@@H]3C[C@H](OCC(F)F)[C@@H](O)[C@H]3O)c2n1"
4.50

====

# test-method-notes: Antagonist activity at P2Y12 receptor in human platelet-rich plasma assessed as inhibition of ADP-induced platelet aggregation incubated for 5 mins prior to ADP-challenge by light transmission-based assay
Can you tell me IC50 for the items I'm about to list?
Report the value in nM with no unit label.

Look up IC50 for this compound: "CCCSc1nc(N[C@@H]2C[C@H]2c2ccc(F)c(F)c2)c2nnn([C@H]3[C@H](O)[C@H](O)[C@@H](OCCO)[C@@H]3O)c2n1"
11300

Look up IC50 for this compound: CCCSc1nc(N[C@@H]2C[C@H]2c2ccc(F)c(F)c2)c2nnn([C@@H]3C[C@H](OCC(F)CO)[C@@H](O)[C@H]3O)c2n1 (some centres not stated)
4820

Look up IC50 for this compound: "CCCSc1nc(N[C@@H]2C[C@H]2c2ccc(F)c(F)c2)c2nnn([C@H]3[C@H](O)[C@H](O)[C@@H](O)[C@@H]3O)c2n1"
16300

Look up IC50 for this compound: "CCCSc1nc(N[C@@H]2C[C@H]2c2ccc(F)c(F)c2)c2nnn([C@H]3[C@H](O)[C@H](O)[C@@H](O)[C@H]3F)c2n1"
220

Look up IC50 for this compound: CCCSc1nc(N[C@@H]2C[C@H]2c2ccc(F)c(F)c2)c2nnn(C3[C@H](O)[C@H](O)[C@@H](O)[C@H]3O)c2n1 (some centres not stated)
1730

Look up IC50 for this compound: "CCCSc1nc(N[C@@H]2C[C@H]2c2ccc(F)c(F)c2)c2nnn([C@H]3[C@H](O)[C@H](O)[C@@H](OCCO)[C@@H]3F)c2n1"
6350

Look up IC50 for this compound: "CCCSc1nc(N[C@@H]2C[C@H]2c2ccc(F)c(F)c2)c2nnn([C@H]3[C@H](O)[C@H](O)[C@@H](O)[C@@H]3F)c2n1"
1670

Look up IC50 for this compound: "CCCSc1nc(N[C@@H]2C[C@H]2c2ccc(F)c(F)c2)c2nnn([C@H]3[C@H](O)[C@H](O)[C@@H](OCCO)[C@H]3F)c2n1"
350

Look up IC50 for this compound: "CCCSc1nc(N[C@@H]2C[C@H]2c2ccc(F)c(F)c2)c2nnn([C@@H]3C=C[C@@H](O)[C@H]3O)c2n1"
1970

Look up IC50 for this compound: CCCSc1nc(N[C@@H]2C[C@H]2c2ccc(F)c(F)c2)c2nnn([C@@H]3C[C@H](OCCO)[C@@H](O)[C@H]3O)c2n1 [AR-C126532XX]
500

Look up IC50 for this compound: "CCCSc1nc(N[C@@H]2C[C@H]2c2ccc(Cl)s2)c2nnn([C@@H]3C[C@H](OCCO)[C@@H](O)[C@H]3O)c2n1"
280

Look up IC50 for this compound: "CCCSc1nc(N[C@@H]2C[C@H]2c2ccc(F)c(F)c2)c2nnn([C@@H]3C[C@H](F)[C@@H](O)[C@H]3O)c2n1"
330
